- Test system: CQ-sensitive (FCMSU1/Sudan) strain of P. falciparum
- procedureDetails: 3H-adenosine incorporation, chloroquine-sensitive P. falciparum
- Format: cell-based
- conditionSet: read-out: IC50 DRUG COMBINATION TT(1.0 uM) CQ(0.3 uM); S STRAIN; TT/CQ 10:3; mean ± S.D
reportedMetric: IC50 (nM)

>  <compound>
COc1ccc2cc1Oc1ccc(cc1)C[C@H]1c3cc(c(OC)cc3CCN1C)Oc1c(OC)c(OC)cc3c1[C@H](C2)N(C)CC3 [TT, tetrandrine]

>  <measurementUnits>
nM

>  <quantitativeReadout>
54.9

$$$$

###

Reported pIC50 is given for each of the following molecules.
- System: CQ-sensitive (FCMSU1/Sudan) strain of P. falciparum
- procedureDetails: 3H-adenosine incorporation, chloroquine-sensitive P. falciparum
- Assay type: cell-based
- conditionSet: read-out: IC50 DRUG COMBINATION TT(3.0 uM) QHS(0.1 uM); S STRAIN; TT/QHS 30:1; mean ± S.D
pIC50: −log10 of the molar value.
reportedMetric: pIC50

>  <mol>
COc1ccc2cc1Oc1ccc(cc1)C[C@H]1c3cc(c(OC)cc3CCN1C)Oc1c(OC)c(OC)cc3c1[C@H](C2)N(C)CC3

>  <reportedMetric>
pIC50

>  <quantitativeReadout>
6.66

$$$$
>  <mol>
C[C@@H]1CC[C@H]2[C@@H](C)C(=O)O[C@@H]3O[C@@]4(C)CC[C@@H]1[C@]32OO4

>  <reportedMetric>
pIC50

>  <quantitativeReadout>
8.14

$$$$

Data credit: patent US6911454B1
